target: FAD-linked sulfhydryl oxidase ALR (Homo sapiens) (UniProt P55789); test: inhibitors of human ALR sulfhydryl oxidase, dose response, biochemical, H2O2 detection, luminescence, cherry-pick (AID 493248); settings: purified ALR, DTT oxidation, H2O2 HRP-luminol luminescence; at 10 µM (top of the series)
Sequence (P55789 whole entry, looked up): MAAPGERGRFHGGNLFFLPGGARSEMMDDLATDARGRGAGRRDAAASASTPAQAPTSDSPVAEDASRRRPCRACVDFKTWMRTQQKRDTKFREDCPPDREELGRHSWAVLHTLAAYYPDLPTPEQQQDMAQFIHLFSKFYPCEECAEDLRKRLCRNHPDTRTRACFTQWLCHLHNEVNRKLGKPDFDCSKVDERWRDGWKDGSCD
The whole screen tested about 2,300 compounds, of which about 1,400 (61%) were called active. Inconclusive results (about 7%) are left out. So high a share suggests a set chosen from earlier hits. A selection follows. Potency and affinity values are given separately.
PROPERTY LABEL: activity change, negative = inhibition (%)

* COc1ccc2c(/C=N/NS(=O)(=O)c3ccc(C)cc3)c[nH]c2c1 | -4.96
* CC1CN(C(=O)Nc2ccc3snnc3c2)c2ccccc21 (centres undefined) | -13.6
* C=CCNC(=O)c1onc(CSc2ccc(C)c(C)c2)c1C(=O)O | 10.6
* CCN1CC(c2ccccc2)C(c2ccc(Cl)cc2)=N1 (centres undefined) | -26.4
* CC(C)(C)c1ccc(C(=O)Oc2ccccc2CCC(=O)O)cc1 | -56
* C=C(C)C(=O)Nc1ccc(NC(C)C)cc1 | 266
* O=C(C1CCC1)N1CCN(c2ccc(Cl)cc2)CC1 | -43.9
* CC(C)CC1(C(=O)O)NC(c2ccccc2O)C2C(=O)N(C(C)C)C(=O)C21 (centres undefined) | -7.77
* CCCCNC(=O)c1onc(CCl)c1C(=O)OC | -46.6
* Cc1cc2c(N3CCCCC3C)ncnc2s1 (centres undefined) | -5.25
* O=[N+]([O-])c1ccc2c(c1)CNc1ccccc1O2 | -57.2
* CC(C)CNC(=O)C(=O)N/N=C/c1cccs1 | -15.3
* Oc1c(Br)cc(Br)c(/C=N/n2c(-c3ccccc3)n[nH]c2=S)c1Br | -75.2
* CN(C)c1ccc(/C(=N\O)C(F)(F)F)cc1 | -20
